# ABCB11 mRNA FC (5 μM ASO vs. UNT) listing for each entry below
Tested on: human ABCB11 mRNA
Test: ASO treatment of primary human hepatocytes (PHH), ABCB11 mRNA by RT-qPCR normalized to B2M
Type: cell-based
Conditions: primary human hepatocytes, 5 μM ASO, normalized to untreated PHHs (UNT)
Protocol: Primary human hepatocytes (PHH) were thawed using Lonza Human Cryopreserved Hepatocyte Thawing Medium and plated in 96-well collagen-coated plates (5.5-6.0×10^4 cells per well). […] 2 μl of cDNA was used for reverse transcription-quantitative PCR (RT-qPCR) analyses using standard Taqman” reagents from Applied Biosystems™ to measure ABCB11 and CYP7A1 gene expression. […]
Strand notation (5' to 3'): a small letter for the sugar, then the base; units joined by * are phosphorothioate-linked, units joined directly phosphodiester-linked; [ ] holds rarer units or linkages, { } end groups; capitals alone tell only the bases. e = 2'-O-(2-methoxyethyl) (MOE); l = locked nucleic acid (LNA); [5mC] = 5-methylcytosine; d = 2'-deoxy (DNA)
Numbers only; they are read as fold change.

Study these solved cases before continuing.
CO-7149: derivative ASO with additional chemical modifications based on parent ASO CO-4517 (antisense e[5mC]*e[5mC]*eT*eT*eA*eG*eG*eA*eG*eG*eA*eT*eT*eA*eT*eT*eT*eA*eA*e[5mC]*e[5mC]*eT); 1.719
CO-7040 (antisense eA*eA*eG*eA*eG*eG*eA*eA*eA*eG*eA*eA*e[5mC]*eT*eG*eG*e[5mC]*e[5mC]*eG*eG); 1.267
CO-7184: derivative ASO with additional chemical modifications based on parent ASO CO-4529 (antisense eG*eT*eG*eG*lA*eG*e[5mC]*eA*eA*lA*e[5mC]*eT*eA*eG*lG*e[5mC]*eA*e[5mC]*eT*eG); 1.582
CO-4025 (antisense eA*e[5mC]*eG*e[5mC]*eT*eA*e[5mC]*eA*eA*eT*eA*e[5mC]*eT*eT*eG*eG*eA*eT*eA*eG); 0.832

Consider the record given below.
[Q] If you can, please state the reported ABCB11 mRNA FC (5 μM ASO vs. UNT) value of CO-7207 (eT*eT*eT*eG*eG*e[5mC]*eG*dT*dT*dA*dT*dT*dA*dA*dT*dT*d[5mC]*eT*eA*e[5mC]*eA*eG*eA*eG; antisense) .
[A] 1.221

###

Tested on: human ABCB11 mRNA
Test: ASO treatment of primary human hepatocytes (PHH), ABCB11 mRNA by RT-qPCR normalized to B2M
Format: cell-based
Details: primary human hepatocytes, 5 μM ASO, normalized to untreated PHHs (UNT)
Strand notation (5' to 3'): a small letter for the sugar, then the base; units joined by * are phosphorothioate-linked, units joined directly phosphodiester-linked; [ ] holds rarer units or linkages, { } end groups; capitals alone tell only the bases. e = 2'-O-(2-methoxyethyl) (MOE); l = locked nucleic acid (LNA); [5mC] = 5-methylcytosine; d = 2'-deoxy (DNA)
The threshold is inclusive: ABCB11 mRNA FC (5 μM ASO vs. UNT) of exactly 1 fold change counts as 1 (yes); values below receive 0 (no).

Look over these answered cases.
CO-7114 (eG*eT*eG*eT*eT*eT*dT*dG*d[5mC]*dT*dT*dG*dG*dT*d[5mC]*dA*eA*eG*eA*eG*eG*eA; antisense); 1 (yes)
CO-7170 (antisense eT*e[5mC]*eT*eT*eA*eT*eT*eT*eG*eG*e[5mC]*eG*eT*eT*eA*eT*eT*eA*eA*eT); 1 (yes)
CO-7045 (antisense eT*eG*eT*eT*eT*dT*dG*d[5mC]*dT*dT*dG*dG*dT*d[5mC]*dA*eA*eG*eA*eG*eG); 1 (yes)

[Q] Record CO-7206 (eT*eT*eG*eG*e[5mC]*lG*dT*dT*lA*dT*dT*dA*dA*lT*dT*d[5mC]*lT*eA*e[5mC]*eA*eG*eA; antisense) ; criterion: ABCB11 mRNA FC (5 μM ASO vs. UNT) no lower than 1 fold change. Met?
[A] 1 (yes)

[Q] Textbook exercise: given the entry CO-4041 (antisense eT*e[5mC]*e[5mC]*eA*eA*eG*eG*e[5mC]*e[5mC]*eT*eG*eT*eT*eG*eA*e[5mC]*eA*e[5mC]*e[5mC]*e[5mC]) , state whether its ABCB11 mRNA FC (5 μM ASO vs. UNT) is greater than or equal to 1 fold change.
[A] 0 (no)

[Q] Say whether CO-6996 (antisense eG*eT*eG*lA*eG*dG*d[5mC]*lA*dT*d[5mC]*dA*lG*dG*dT*dA*lA*eG*eT*eT*e[5mC]) shows ABCB11 mRNA FC (5 μM ASO vs. UNT) of 1 fold change or more.
[A] 1 (yes)

###

System: human ABCB11 mRNA
Assay: ASO treatment of primary human hepatocytes (PHH), ABCB11 mRNA by RT-qPCR normalized to B2M
Type: cell-based
Conditions: primary human hepatocytes, 5 μM ASO, normalized to untreated PHHs (UNT)
Strand notation (5' to 3'): a small letter for the sugar, then the base; units joined by * are phosphorothioate-linked, units joined directly phosphodiester-linked; [ ] holds rarer units or linkages, { } end groups; capitals alone tell only the bases. e = 2'-O-(2-methoxyethyl) (MOE); l = locked nucleic acid (LNA); [5mC] = 5-methylcytosine; d = 2'-deoxy (DNA)
# yes (1) = ABCB11 mRNA FC (5 μM ASO vs. UNT) below 1 fold change (exclusive); no (0) = ABCB11 mRNA FC (5 μM ASO vs. UNT) at/above 1 fold change

Please review the entries below; each comes with its answer.
CO-4018 (antisense eA*eT*eG*eG*e[5mC]*e[5mC]*eG*eA*eA*eT*eA*eG*eA*eT*eT*eG*eA*eA*eT*eA); no (0)
CO-7026 (antisense eA*e[5mC]*eA*eG*eT*eG*eA*eG*e[5mC]*eT*eT*eA*eT*e[5mC]*eT*eG*eG*eA*eA*eA); no (0)
CO-7020 (antisense eA*eA*eG*eT*eG*dA*dG*lG*d[5mC]*dA*lT*d[5mC]*dA*lG*dG*dT*lA*dA*dG*eT*eT*e[5mC]*e[5mC]*eT); no (0)
CO-4520 (antisense eG*eG*eA*eA*eG*eA*eA*eG*eG*eT*eT*eA*eG*e[5mC]*eA*e[5mC]*eA*eG*eA*e[5mC]); yes (1)
CO-7035 (antisense e[5mC]*eA*eT*eT*eT*dA*dG*dA*dG*dA*d[5mC]*dA*dA*dA*dG*eA*eA*eT*e[5mC]*eG); no (0)

[Q] Answer whether the substance CO-4514 (antisense eG*e[5mC]*eG*eG*eG*eA*eT*eT*eA*eG*eA*eT*eG*eA*eG*eG*eT*e[5mC]*eT*eA) has ABCB11 mRNA FC (5 μM ASO vs. UNT) strictly less than 1 fold change
[A] no (0)

###

Listing of entries alongside the reported ABCB11 mRNA FC (5 μM ASO vs. UNT).
System: human ABCB11 mRNA
Experiment: ASO treatment of primary human hepatocytes (PHH), ABCB11 mRNA by RT-qPCR normalized to B2M
Assay type: cell-based
Settings: primary human hepatocytes, 5 μM ASO, normalized to untreated PHHs (UNT)
Strand notation (5' to 3'): a small letter for the sugar, then the base; units joined by * are phosphorothioate-linked, units joined directly phosphodiester-linked; [ ] holds rarer units or linkages, { } end groups; capitals alone tell only the bases. e = 2'-O-(2-methoxyethyl) (MOE); l = locked nucleic acid (LNA); [5mC] = 5-methylcytosine; d = 2'-deoxy (DNA)

[Q] Could you share which ABCB11 mRNA FC (5 μM ASO vs. UNT) value was measured for CO-7090 (eA*e[5mC]*e[5mC]*e[5mC]*l[5mC]*d[5mC]*d[5mC]*dT*l[5mC]*dA*d[5mC]*d[5mC]*lT*dT*dG*eG*lT*eT*e[5mC]*e[5mC]; antisense) ?
[A] 1.203 fold change

[Q] So what does the record say about ABCB11 mRNA FC (5 μM ASO vs. UNT) for CO-7199 (eA*eG*eG*eT*eG*eG*eA*dG*d[5mC]*dA*dA*dA*d[5mC]*dT*dA*dG*dG*e[5mC]*eA*e[5mC]*eT*eG*eA*eG; antisense) ?
[A] 1.166 fold change

[Q] Name the recorded ABCB11 mRNA FC (5 μM ASO vs. UNT) for CO-7069 (e[5mC]*eA*eT*lT*eT*dA*dG*lA*dG*dA*d[5mC]*lA*dA*dA*dG*lA*eA*eT*e[5mC]*eG; antisense) .
[A] 1.011 fold change

[Q] I would be grateful if you could share the reported ABCB11 mRNA FC (5 μM ASO vs. UNT) for CO-7050 (antisense eT*eT*eG*eG*eT*eT*e[5mC]*e[5mC]*e[5mC]*e[5mC]*e[5mC]*eT*eG*e[5mC]*eT*eG*eT*eG*e[5mC]*eT) .
[A] 1.026 fold change

[Q] Field request: ABCB11 mRNA FC (5 μM ASO vs. UNT) | item: CO-4012 (antisense eG*eA*eA*e[5mC]*eT*eA*e[5mC]*eA*e[5mC]*e[5mC]*eG*eA*e[5mC]*eT*eT*eT*eA*eT*e[5mC]*eT)
[A] 1.15 fold change

[Q] Data request, read-out ABCB11 mRNA FC (5 μM ASO vs. UNT), for CO-4015 (antisense eG*eT*eT*eT*eG*e[5mC]*eT*e[5mC]*eT*eG*eA*eT*eA*eA*eT*e[5mC]*eA*e[5mC]*eA*eG)
[A] 1.043 fold change
